Listed here: items and their measured protein stability index.
- experimentalProtocol: protein stability index of a GFP-peptide fusion (GPS, HEK-293T) (PSI 1-6); higher = more stable;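 further: 24-mer peptide tiles fused after GFP, lentivirally expressed, FACS-sorted into six equal bins by GFP/DsRed ratio, decoded by Illumina sequencing, PSI is the read-weighted mean bin number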
- studyConditions: treatment: DMSO; c terminus: a fixed tail appended

These solved cases illustrate the format of a correct answer.
>  <orderedResidues>
EEYSQIIYSTKLYRFFKYIENRDV [BTBD10]

>  <protein stability index>
1.64

$$$$
>  <orderedResidues>
RDVVLCSLLNFLPEGVNKLKISPV [TENT5C]

>  <protein stability index>
2.2

$$$$
>  <orderedResidues>
ELMKCQIIYPRQQLLTLRELEMIG [TRIP13]

>  <protein stability index>
2.33

$$$$

Task item: Can you share its protein stability index? I mean this sequence: MGSASPGLSSVSPSHLLLPPDTVS [SPDEF]
Reply: 4.28

Task item: Param item = WLQERYEIVGNLGEGTFGKVVECL [CLK3] ; retrieve measured protein stability index.
Reply: 2.24

Task item: For the sequence shown here, VWTSPRRLVELAGQSLLKDEALAI [PRAME] , give the reported protein stability index.
Reply: 3.36

Task item: Value lookup for protein stability index; key = QRIHAAERLCMGVDCTEIFGGNPR [ZNF263]
Reply: 3.36

Task item: Entry under review: GLGPTSEPFPSSDDSPRSALAAAT [SPAG8] . Reported protein stability index?
Reply: 4.95

---

- experimentalProtocol: protein stability index of a GFP-peptide fusion (GPS, HEK-293T) (PSI 1-6); higher = more stable
- studyConditions: treatment: MLN4924 1 uM, 8 h; c terminus: a fixed tail appended
Entries and their protein stability index

Recorded protein stability index, per entry:
>  <orderedResidues>
LITQQIIPVLYCMVFIAGILLNGV [P2RY14]

>  <quantityKind>
protein stability index

>  <observedMeasurement>
3.42

$$$$
>  <orderedResidues>
LALKTPPRVLTLSERPLDFLDLER [MFF]

>  <quantityKind>
protein stability index

>  <observedMeasurement>
3.1

$$$$
>  <orderedResidues>
RFQAMEETHLRHMKALLGSYAHSV [FCHO1]

>  <quantityKind>
protein stability index

>  <observedMeasurement>
2.38

$$$$
>  <orderedResidues>
EEYSQIIYSTKLYRFFKYIENRDV [BTBD10]

>  <quantityKind>
protein stability index

>  <observedMeasurement>
1.87

$$$$
>  <orderedResidues>
HGEGNHIYAYDAKIEIQTLTGLFK [CASP6]

>  <quantityKind>
protein stability index

>  <observedMeasurement>
2.12

$$$$
>  <orderedResidues>
DKHGCPAYVSPEILNTTGTYSGKA [TRIB1]

>  <quantityKind>
protein stability index

>  <observedMeasurement>
4.52

$$$$

Task item: Using the record for VKRLHEVGRTEPELLVAHAYTRYL [HMOX1] , report its protein stability index.
Reply: 2.4

Task item: Value lookup for protein stability index; key = FPRDAVQIEEVFISEEIQMSTKES [MIA2]
Reply: 4.5

Task item: Item LLLSHIHASSYISPEKEEQYIAQF [PRAME] has what recorded protein stability index?
Reply: 2.37

---

- experimentalProtocol: protein stability index of a GFP-peptide fusion (GPS, HEK-293T) (PSI 1-6); higher = more stable
- studyConditions: treatment: MLN4924 1 uM, 8 h; c terminus: a fixed tail appended
Outcome label depends on protein stability index relative to 3: at/above gives y, below gives n.

Examples from the recorded data:
>  <orderedResidues>
SSGGSSGSSSDNRTYRYSNRYCGG [DYRK1B]

>  <label>
y

$$$$
>  <orderedResidues>
SAAVRGHPRALPPDARPHRRPHEL [HAGHL]

>  <label>
y

$$$$
>  <orderedResidues>
DRETQEGKPPTAHLDRTSVSSLSE [ELOA2]

>  <label>
y

$$$$
>  <orderedResidues>
EDDPSVLYVSLHRYDHGTFFPMGD [HDAC6]

>  <label>
n

$$$$
>  <orderedResidues>
KLNLCEDGPCHKRRASICCTQLGS [SCARA5]

>  <label>
y

$$$$

Task item: Evaluate LRGKECCINRFQQVESRWGYSGTS [BTBD1] : protein stability index at minimum 3?
Reply: n

Task item: Does the reported protein stability index for FGFAQILIPGDAYTDYVATRWYRA [CDKL4] fall at or above the 3 mark?
Reply: n
